System: IL-17A-induced G-CSF production in human normal keratinocyte (NHK)
protocolSummary: NHK assay: IL-17A-induced G-CSF production in normal human keratinocytes
Format: cell-based
runParameters: Homo sapiens, Keratinocyte, 24 h, IL-17A 5 ng/mL, G-CSF by HTRF, average if tested more than once
IC50 values for the compounds below.
readoutKind: IC50

>  <compound>
CC1CCCN(Cc2cnn3cc([C@@H](NC(=O)c4ccnn4C(C)C)C4CCC(F)(F)CC4)nc3c2)C(=O)N1 (single isomer, unassigned) [Example 94]

>  <targetUnderTest>
IL-17A-induced G-CSF production in human normal keratinocyte (NHK)

>  <recordedResult>
> 100 nM

$$$$
>  <compound>
CC1CCCN(Cc2cnn3cc([C@@H](NC(=O)c4nonc4C4CC4)C4CCC(F)(F)CC4)nc3c2)C(=O)N1 (single isomer, unassigned) [Example 96]

>  <targetUnderTest>
IL-17A-induced G-CSF production in human normal keratinocyte (NHK)

>  <recordedResult>
> 100 nM

$$$$
>  <compound>
CCOCC(c1cnn2cc([C@@H](NC(=O)c3nonc3C3CC3)C3CCC(F)(F)CC3)nc2c1)N1CC(F)(F)CNC1=O (single isomer, unassigned) [Example 36]

>  <targetUnderTest>
IL-17A-induced G-CSF production in human normal keratinocyte (NHK)

>  <recordedResult>
< 50 nM

$$$$
>  <compound>
COC[C@H](c1cnn2cc([C@@H](NC(=O)c3nonc3C3CC3)[C@@H](C)OC3(C(F)(F)F)CC3)nc2c1)N1CC(F)(F)CNC1=O (relative stereo) [Example 90]

>  <targetUnderTest>
IL-17A-induced G-CSF production in human normal keratinocyte (NHK)

>  <recordedResult>
< 50 nM

$$$$
>  <compound>
COc1nonc1C(=O)N[C@@H](CCC(C)(C)C(F)(F)F)c1cn2ncc([C@@H](COC3CC3)N3CC(F)(F)CNC3=O)cc2n1 [Example 122]

>  <targetUnderTest>
IL-17A-induced G-CSF production in human normal keratinocyte (NHK)

>  <recordedResult>
< 50 nM

$$$$
>  <compound>
Cc1nonc1C(=O)N[C@@H](CCC(C)(C)C(F)(F)F)c1cn2ncc(CN3C[C@@H]4[C@H](CNC3=O)C4(F)F)cc2n1 (relative stereo) [Example 120]

>  <targetUnderTest>
IL-17A-induced G-CSF production in human normal keratinocyte (NHK)

>  <recordedResult>
> 100 nM

$$$$
>  <compound>
COC[C@H](c1cnn2cc([C@H](CC(C)(C)C(F)(F)F)NC(=O)c3nonc3C)nc2c1)N1CC(F)(F)CNC1=O [Example 66]

>  <targetUnderTest>
IL-17A-induced G-CSF production in human normal keratinocyte (NHK)

>  <recordedResult>
50 to 100 nM

$$$$
>  <compound>
COC[C@H](c1cnn2cc(C(CC(C)(C)C(C)(F)F)NC(=O)c3nonc3C3CC3)nc2c1)N1CC(F)(F)CNC1=O (single isomer, unassigned) [Example 68]

>  <targetUnderTest>
IL-17A-induced G-CSF production in human normal keratinocyte (NHK)

>  <recordedResult>
< 50 nM

$$$$
>  <compound>
Cc1nonc1C(=O)N[C@H](c1cn2ncc(CN3CC(C)(C)CNC3=O)cc2n1)C1CCC(F)(F)CC1 [Example 32]

>  <targetUnderTest>
IL-17A-induced G-CSF production in human normal keratinocyte (NHK)

>  <recordedResult>
> 100 nM

$$$$
>  <compound>
Cc1nonc1C(=O)N[C@@H](CCC(C)(C)C(F)(F)F)c1cn2ncc([C@@H](COC3CC3)N3CC(F)(F)CNC3=O)cc2n1 [Example 56]

>  <targetUnderTest>
IL-17A-induced G-CSF production in human normal keratinocyte (NHK)

>  <recordedResult>
< 50 nM

$$$$
>  <compound>
CC1(C)CNC(=O)N(Cc2cnn3cc([C@@H](NC(=O)c4nonc4C4CC4)C4CCC(F)(F)CC4)nc3c2)C1 [Example 33]

>  <targetUnderTest>
IL-17A-induced G-CSF production in human normal keratinocyte (NHK)

>  <recordedResult>
> 100 nM

$$$$
>  <compound>
[2H]C1([2H])NC(=O)N([C@H](COC2CC2)c2cnn3cc([C@H](CCC(C)(C)C(F)(F)F)NC(=O)c4nonc4OC)nc3c2)C([2H])([2H])C1(F)F [Example 75]

>  <targetUnderTest>
IL-17A-induced G-CSF production in human normal keratinocyte (NHK)

>  <recordedResult>
< 50 nM

$$$$

====

pIC50 values for the molecules below.
targetUnderTest: IL-17A(FLAG-Tagged): IL-17RA(His-Tagged) binding (Homo sapiens, UniProt Q16552, K93Q)
Sequence (Q16552 with tags, fused parts or gaps K93Q): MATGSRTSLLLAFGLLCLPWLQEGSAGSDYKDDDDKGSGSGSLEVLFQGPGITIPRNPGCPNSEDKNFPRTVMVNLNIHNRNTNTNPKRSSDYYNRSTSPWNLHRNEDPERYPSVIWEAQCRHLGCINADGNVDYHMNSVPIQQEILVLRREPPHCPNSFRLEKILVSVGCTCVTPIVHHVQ
protocolSummary: IL-17A(FLAG-tagged):IL-17RA(His-tagged) binding disruption Eu-HTRF assay, Protocol 2
runParameters: FLAG-IL-17A 1 nM; average if tested more than once
pIC50: −log10 of the molar value.

>  <molecule>
COC[C@H](c1cnn2cc([C@H](CCC(C)(C)C(F)(F)F)NC(=O)c3nonc3OC)nc2c1)N1CC(F)(F)CNC1=O [Example 109]

>  <targetUnderTest>
IL-17A(FLAG-Tagged): IL-17RA(His-Tagged) binding (Homo sapiens, UniProt Q16552, K93Q)

>  <pIC50>
> 7.30

$$$$
>  <molecule>
COc1nonc1C(=O)N[C@@H](CCC(C)(C)C(F)(F)F)c1cn2ncc(CN3C[C@H]4[C@@H](CNC3=O)C4(F)F)cc2n1 (relative stereo) [Example 117]

>  <targetUnderTest>
IL-17A(FLAG-Tagged): IL-17RA(His-Tagged) binding (Homo sapiens, UniProt Q16552, K93Q)

>  <pIC50>
> 7.30

$$$$
>  <molecule>
COC[C@H](c1cnn2cc([C@@H](NC(=O)c3nonc3C3CC3)[C@@H](C)OC3CC3)nc2c1)N1CC(F)(F)CNC1=O (relative stereo) [Example 54]

>  <targetUnderTest>
IL-17A(FLAG-Tagged): IL-17RA(His-Tagged) binding (Homo sapiens, UniProt Q16552, K93Q)

>  <pIC50>
> 7.30

$$$$

====

System: IL-17A-induced G-CSF production in human normal keratinocyte (NHK)
protocolSummary: NHK assay: IL-17A-induced G-CSF production in normal human keratinocytes
Format: cell-based
runParameters: Homo sapiens, Keratinocyte, 24 h, IL-17A 5 ng/mL, G-CSF by HTRF, average if tested more than once
IC50 values for the compounds below.
readoutKind: IC50

>  <compound>
Cc1nocc1C(=O)N[C@H](c1cn2ncc([C@@H](COC3CC3)N3CC(F)(F)CNC3=O)cc2n1)C1CCC(F)(F)CC1

>  <recordedResult>
< 50 nM

$$$$
>  <compound>
COC[C@H](c1cnn2cc([C@@H](NC(=O)c3nonc3C)C(C3CC3)C3CC3)nc2c1)N1CC(F)(F)CNC1=O

>  <recordedResult>
< 50 nM

$$$$
>  <compound>
COC[C@H](c1cnn2cc([C@@H](NC(=O)c3nonc3C3CC3)[C@H]3[C@@H]4CC(F)(F)C[C@@H]43)nc2c1)N1CC(F)(F)CNC1=O (relative stereo)

>  <recordedResult>
< 50 nM

$$$$
>  <compound>
CC(C)n1nccc1C(=O)N[C@H](c1cn2ncc(CN3CC(C)(C)CNC3=O)cc2n1)C1CCC(F)(F)CC1

>  <recordedResult>
> 100 nM

$$$$
>  <compound>
Cc1nonc1C(=O)N[C@H](c1cn2ncc(C(COC(C)C)N3CC(F)(F)CNC3=O)cc2n1)C1CCC(F)(F)CC1 (single isomer, unassigned)

>  <recordedResult>
< 50 nM

$$$$
>  <compound>
[2H]C1([2H])NC(=O)N([C@H](COC)c2cnn3cc([C@@H](NC(=O)c4nonc4C4CC4)C4CCC(F)(F)CC4)nc3c2)C([2H])([2H])C1(F)F

>  <recordedResult>
< 50 nM

$$$$
>  <compound>
Cc1nonc1C(=O)N[C@H](c1cn2ncc(C(COC3CCC3)N3CC(F)(F)CNC3=O)cc2n1)C1CCC(F)(F)CC1 (single isomer, unassigned)

>  <recordedResult>
< 50 nM

$$$$
>  <compound>
[2H]C1([2H])NC(=O)N([C@H](COC2CC2)c2cnn3cc([C@@H](NC(=O)c4nonc4OC)C4CCC(F)(F)CC4)nc3c2)C([2H])([2H])C1(F)F

>  <recordedResult>
< 50 nM

$$$$
>  <compound>
O=C(N[C@H](c1cn2ncc([C@@H](COC3CC3)N3CC(F)(F)CNC3=O)cc2n1)C1CCC(F)(F)CC1)c1nonc1C(F)F

>  <recordedResult>
< 50 nM

$$$$
>  <compound>
CC(C)(OC[C@H](NC(=O)c1nonc1C1CC1)c1cn2ncc(CN3CC(F)(F)CNC3=O)cc2n1)C(F)(F)F

>  <recordedResult>
< 50 nM

$$$$
>  <compound>
COC[C@H](c1cnn2cc([C@@H](NC(=O)c3nonc3C3CC3)[C@H](C)OC3CC3)nc2c1)N1CC(F)(F)CNC1=O (relative stereo)

>  <recordedResult>
> 100 nM

$$$$
>  <compound>
CC(c1cnn2cc([C@@H](NC(=O)c3nonc3C3CC3)C3CCC(F)(F)CC3)nc2c1)N1CC(F)(F)CNC1=O (single isomer, unassigned)

>  <recordedResult>
> 100 nM

$$$$
>  <compound>
O=C(N[C@H](c1cn2ncc([C@@H](C3CC3)N3CC(F)(F)CNC3=O)cc2n1)C1CCC(F)(F)CC1)c1nonc1C1CC1

>  <recordedResult>
< 50 nM

$$$$
>  <compound>
CC(C)n1nccc1C(=O)N[C@H](c1cn2ncc([C@@H](COC3CC3)N3CC(F)(F)CNC3=O)cc2n1)C1CCC(F)(F)CC1

>  <recordedResult>
< 50 nM

$$$$
>  <compound>
Cc1nonc1C(=O)N[C@H](c1cn2ncc([C@@H](C3CC3)N3CC(F)(F)CNC3=O)cc2n1)C1CCC(F)(F)CC1

>  <recordedResult>
50 to 100 nM

$$$$
>  <compound>
Cc1nonc1C(=O)N[C@H](c1cn2ncc(C(C)N3CC(F)(F)CNC3=O)cc2n1)C1CCC(F)(F)CC1 (single isomer, unassigned)

>  <recordedResult>
> 100 nM

$$$$
>  <compound>
COC[C@H](c1cnn2cc([C@@H](NC(=O)c3nonc3C(C)(F)F)C3CCC(F)(F)CC3)nc2c1)N1CC(F)(F)CNC1=O

>  <recordedResult>
< 50 nM

$$$$
>  <compound>
COC[C@H](c1cnn2cc([C@@H](NC(=O)c3nonc3C3CC3)C3CCC(F)(F)CC3)nc2c1)N1CC(F)(F)CNC1=O

>  <recordedResult>
< 50 nM

$$$$
>  <compound>
[2H]C1([2H])NC(=O)N([C@H](COC)c2cnn3cc([C@H](CCC(C)(C)C(F)(F)F)NC(=O)c4nonc4C4CC4)nc3c2)C([2H])([2H])C1(F)F

>  <recordedResult>
< 50 nM

$$$$
>  <compound>
Cc1nonc1C(=O)N[C@H](c1cn2ncc([C@@H](COC3CC3)N3CC(F)(F)CNC3=O)cc2n1)C1CCC(F)(F)CC1

>  <recordedResult>
< 50 nM

$$$$
>  <compound>
CC(C)n1nccc1C(=O)N[C@H](c1cn2ncc(CN3CCCNC3=O)cc2n1)C1CCC(F)(F)CC1

>  <recordedResult>
> 100 nM

$$$$
>  <compound>
COC[C@H](c1cnn2cc([C@H](COC(C)(C)C(F)(F)F)NC(=O)c3nonc3C3CC3)nc2c1)N1CC(F)(F)CNC1=O

>  <recordedResult>
< 50 nM

$$$$
>  <compound>
Cc1nonc1C(=O)N[C@@H](COC(C)(C)C(F)(F)F)c1cn2ncc([C@@H](C3CC3)N3CC(F)(F)CNC3=O)cc2n1

>  <recordedResult>
50 to 100 nM

$$$$
>  <compound>
C[C@H](c1cnn2cc([C@@H](NC(=O)c3nonc3C3CC3)C3CCC(F)(F)CC3)nc2c1)N1CC(F)(F)CNC1=O

>  <recordedResult>
< 50 nM

$$$$

Values were extracted from patent US12173007B2.
